Reference for the values: ChEMBL document CHEMBL5131479

Provide the reported pIC50 of each item.
assay: Inhibition of 5'-UUCACGGAGAA[flc] mRNA binding to biotinylated His6-tagged Yersinia pseudotuberculosis CsrA measured by fluorescence polarization assay
Where a SMILES comes first, the peptide text is derived from it. Bridges are numbered along the chain shown (N, C = ends). [ ]: non-standard residue; d: D form. Ala(indol-2-yl) = N[C@@H](Cc1cc2ccccc2[nH]1)C(=O)O
# log scale: pIC50 equals minus log10 of the concentration in mol/L

Task item: Tell me its pIC50 given CC(=O)N[C@H](C(=O)N[C@H]1CSSC[C@@H](C(=O)N[C@@H](Cc2cc3ccccc3[nH]2)C(=O)O)NC(=O)[C@H](CC(C)C)NC(=O)[C@H](CCC(=O)O)NC(=O)[C@H](CO)NC1=O)C(C)C (Ac-VCSELC[Ala(indol-2-yl)]-OH; disulfide 2-6) as the entry.
Reply: 4.76

Task item: In one line, give reported pIC50 of the entry CC(=O)N[C@H](C(=O)N[C@H]1CSSC[C@@H](C(=O)N[C@@H](Cc2cc3ccccc3[nH]2)C(N)=O)NC(=O)[C@H](CC(C)C)NC(=O)[C@H](C)NC(=O)[C@H](CO)NC1=O)C(C)C (Ac-VCSALC[Ala(indol-2-yl)]-NH2; disulfide 2-6) .
Reply: 4.64

Task item: State its pIC50: CC[C@H](C)[C@H](NC(=O)[C@H]1CCCCN1C)C(=O)N[C@H](CCc1nc(C(=O)N[C@@H](Cc2ccc(O)cc2)C[C@H](C)C(=O)O)cs1)C(C)C
Reply: 4.96
